Taken from patent US7727960B2.

Target: T1, human C5aR (CD88) (human, UniProt P21730 1-350)
T1 sequence (looked up): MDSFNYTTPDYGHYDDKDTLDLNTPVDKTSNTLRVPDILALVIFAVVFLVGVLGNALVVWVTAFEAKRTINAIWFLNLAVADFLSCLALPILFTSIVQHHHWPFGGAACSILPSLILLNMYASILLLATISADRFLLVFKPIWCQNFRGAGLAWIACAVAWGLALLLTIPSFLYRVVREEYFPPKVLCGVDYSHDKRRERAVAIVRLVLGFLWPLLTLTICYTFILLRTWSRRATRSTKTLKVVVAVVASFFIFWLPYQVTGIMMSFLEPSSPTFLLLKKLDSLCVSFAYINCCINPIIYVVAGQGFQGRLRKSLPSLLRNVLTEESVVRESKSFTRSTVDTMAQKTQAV
Experiment: cell-based or functional assay
Non-standard residues stand in square brackets, D forms with d. No end group written: not given here. dCha = N[C@H](CC1CCCCC1)C(=O)O; Orn = NCCC[C@H](N)C(=O)O; Ecf = Cys(O-3-picolyl)
PARAMETER: IC50 activity group, enzyme release assay

BINDER	VALUE MEASURED
Ac-F[Orn]P[dCha]W[Ecf] (lactam (positions not given here); not fully specified (bridges); printed as Ac-Phe-[Orn-Pro-cha-Trp-Ecf]) [Ac-Phe-[Orn-Pro-cha-Trp-Ecf]]	≤ 2 µM

Here's the next entry for you.
Lookup: Output IC50 activity group, enzyme release assay of Ac-F[Orn]P[dCha]WL (lactam (positions not given here); not fully specified (bridges); printed as Ac-Phe-[Orn-Pro-cha-Trp-Leu]) [Ac-Phe-[Orn-Pro-cha-Trp-Leu]]
Found: ≤ 0.2 µM
